Entry source: PubChem BioAssay

Assay: MM1S myeloma cell viability, profiling panel, resazurin fluorescence, basal, 24 h, PK04 Diversity Set (AID 1174);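 further: MM1S multiple myeloma cell line; test concentration not given here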
Details: higher = more signal, called active from +8 up or from −8 down
measurementType: z-score
Respond with the number and no other words.

What value of z-score has been recorded for this entry: `CC(=O)OC[C@H]1O[C@H](CC=NOCC[C@@H]2C=C[C@H](OC(C)=O)[C@@H](COC(C)=O)O2)C=C[C@@H]1OC(C)=O`
0.0092

What value of z-score has been recorded for this entry: `CO[C@H]1C[C@@H]2C[C@H](O)CC(CC(=O)O[C@@H](C=CCC(C)C)C[C@@H]3CC[C@H](C)[C@@H](C1)O3)O2`
-0.0942

What value of z-score has been recorded for this entry: `CC(=O)OC[C@H]1O[C@H](C#CCC2CCCCC2)C=C[C@@H]1OC(C)=O`
-2.52

What value of z-score has been recorded for this entry: `CC(=O)OC[C@H]1O[C@@H](ON=C(C)C)[C@H](OC(C)=O)[C@@H](OC(C)=O)[C@@H]1OC(C)=O`
-0.0437

What value of z-score has been recorded for this entry: `CO[C@@H]1COC(=O)[C@@H]2CCCN2C(=O)[C@@H](C)COC(=O)CCC[C@H]1C`
-0.27

What value of z-score has been recorded for this entry: `COc1ccc(COC(=O)NN=C2C[C@@H](O)[C@@H](O)[C@@H]3[C@@H]4C(=O)N(C[C@@H]5CCCO5)C(=O)[C@@H]4CC[C@H]23)cc1`
0.0829

What value of z-score has been recorded for this entry: `CO[C@@H]1C=CCC(=O)N[C@@H](C)C(=O)OC[C@@H](NS(=O)(=O)c2ccc(C)cc2)[C@H](C)C=CCC(=O)OC[C@H]1C`
-0.0213

What value of z-score has been recorded for this entry: `CO[C@H]1COC(=O)CC=C[C@@H](C)COC(=O)[C@H]2CCCN2C(=O)CC=C[C@H]1C`
-0.0093

What value of z-score has been recorded for this entry: `CO[C@@H]1COC(=O)[C@H](COCc2ccccc2)NC(=O)CC=C[C@@H](C)[C@H](OC)COC(=O)[C@@H](C)NC(=O)CC=C[C@H]1C`
-2.05

What value of z-score has been recorded for this entry: `COc1ccc(COC(=O)NN=C2C[C@@H](O)[C@@H](O)[C@@H]3[C@@H]4C(=O)N(C[C@@H]5CCCO5)C(=O)[C@@H]4CC[C@@H]23)cc1`
0.075

What value of z-score has been recorded for this entry: `CC(CCC(=O)OC[C@H]1O[C@H](C#Cc2ccccc2)C=C[C@@H]1Oc1ccc(C)cc1)=NO[C@H](C)c1cn([C@@H]2COC[C@H]2O)nn1`
-1.7

What value of z-score has been recorded for this entry: `CCOC(=O)NN=C1C[C@@H](O)[C@@H](O)[C@@H]2[C@@H]3C(=O)N(CC)C(=O)[C@@H]3CC[C@H]12`
-2.97

What value of z-score has been recorded for this entry: `CC(=O)OC[C@H]1O[C@H](CCON=C(C)C)C=C[C@@H]1OC(C)=O`
-0.54

What value of z-score has been recorded for this entry: `CCOC(=O)CCN1C(=O)[C@H]2[C@H]3[C@H](O)[C@H](O)CC(=NNC(=O)OCc4ccccc4)[C@H]3CC[C@H]2C1=O`
-0.364

What value of z-score has been recorded for this entry: `CC(C)=CCCC(C)=CCON=C1C[C@@H](O)[C@@H](O)[C@@H]2[C@@H]3C(=O)N(Cc4ccc5c(c4)OCO5)C(=O)[C@@H]3CC[C@H]12`
-0.503

What value of z-score has been recorded for this entry: `CC(C)=CCCC(C)=CCON=C1C[C@@H](O)[C@@H](O)[C@@H]2[C@@H]3C(=O)N(Cc4ccc5c(c4)OCO5)C(=O)[C@@H]3CC[C@@H]12`
0.411

What value of z-score has been recorded for this entry: `CC(C)CON=C1C[C@@H](O)[C@@H](O)[C@@H]2[C@@H]3C(=O)N([C@@H](C)c4ccccc4)C(=O)[C@@H]3CC[C@@H]12`
-0.827
